- ASSAY_SUMMARY: Absorption wavelength of the cyanine dyes in methanol (halo substitution effect)
- Format: physicochemical
- TEST_CONTEXT: Table 5
Below, each entry is listed with its recorded λMeOH.
The figure you give is taken to be in nm; do not add the unit.

Completed entries (count: 4):
CCCCOc1c(F)c(F)c(C2=C(/C=C/C3=[N+](CCCCCC(=O)O)c4ccc(S(=O)(=O)[O-])cc4C3(C)C)CCC/C2=C\C=C2\N(CCCCS(=O)(=O)[O-])c3ccc(S(=O)(=O)[O-])cc3C2(C)C)c(F)c1F.[Na+].[Na+] : 790
CC1(C)C(/C=C/C2=C(c3c(F)cc(C(=O)O)cc3F)C(=C/C=C3/N(CCCCS(=O)(=O)[O-])c4ccc(S(=O)(=O)[O-])cc4C3(C)C)/CCC2)=[N+](CCCCCC(=O)O)c2ccc(S(=O)(=O)[O-])cc21.[Na+].[Na+] : 782
CCCCOc1ccc(F)c(C2=C(/C=C/C3=[N+](CCCCCC(=O)O)c4ccc(S(=O)(=O)[O-])cc4C3(C)C)CCC/C2=C\C=C2\N(CCCCS(=O)(=O)[O-])c3ccc(S(=O)(=O)[O-])cc3C2(C)C)c1F.[Na+].[Na+] : 779
COc1cc(F)c(C2=C(/C=C/C3=[N+](CCCCCC(=O)O)c4ccc(S(=O)(=O)[O-])cc4C3(C)C)CCC/C2=C\C=C2\N(CCCCS(=O)(=O)[O-])c3ccc(S(=O)(=O)[O-])cc3C2(C)C)c(F)c1.[Na+].[Na+] : 772

Give the reported λMeOH for this compound. "CCCCOc1c(F)cc(F)c(C2=C(/C=C/C3=[N+](CCCCCC(=O)O)c4ccc(S(=O)(=O)[O-])cc4C3(C)C)CCC/C2=C\C=C2\N(CCCCS(=O)(=O)[O-])c3ccc(S(=O)(=O)[O-])cc3C2(C)C)c1F.[Na+].[Na+]"
789

Give the reported λMeOH for this compound. "CC1(C)C(/C=C/C2=C(c3c(Cl)cccc3Cl)C(=C/C=C3/N(CCCCS(=O)(=O)[O-])c4ccc(S(=O)(=O)[O-])cc4C3(C)C)/CCC2)=[N+](CCCCCC(=O)O)c2ccc(S(=O)(=O)[O-])cc21.[Na+].[Na+]"
782

Give the reported λMeOH for this compound. "CC1(C)C(/C=C/C2=C(c3c(F)cccc3F)C(=C/C=C3/N(CCCCS(=O)(=O)[O-])c4ccc(S(=O)(=O)[O-])cc4C3(C)C)/CCC2)=[N+](CCCCCC(=O)O)c2ccc(S(=O)(=O)[O-])cc21.[Na+].[Na+]"
782

Give the reported λMeOH for this compound. "CC1(C)C(/C=C/C2=C(c3ccccc3F)C(=C/C=C3/N(CCCCS(=O)(=O)[O-])c4ccc(S(=O)(=O)[O-])cc4C3(C)C)/CCC2)=[N+](CCCCCC(=O)O)c2ccc(S(=O)(=O)[O-])cc21.[Na+].[Na+]"
772

Give the reported λMeOH for this compound. "CC1(C)C(/C=C/C2=C(c3c(F)cc(F)cc3F)C(=C/C=C3/N(CCCCS(=O)(=O)[O-])c4ccc(S(=O)(=O)[O-])cc4C3(C)C)/CCC2)=[N+](CCCCCC(=O)O)c2ccc(S(=O)(=O)[O-])cc21.[Na+].[Na+]"
785
